The compounds listed here are annotated with their IC50.
# Tested on: SK-OV-3
# ASSAY_NOTES: Anticancer activity against human SKOV3 cells after 48 hrs by SRB assay
# Type: functional, cell-based
# CONDITION_CONTEXT: SK-OV-3, 48 h
Hey, just the number and the unit after it is fine.

{"COMPOUND": "O=C1C(=O)c2c(nc3cnccn23)-c2ncccc21", "IC50": "18 nM"}

Please give the documented IC50 of `COc1cccc2nc3c(nc12)C(=O)c1cnncc1C3=O`
39 nM

Supply recorded IC50 for COc1cccc2c1C(=O)c1c(O)c3c(c(O)c1C2=O)C[C@@](O)(C(=O)CO)C[C@@H]3O[C@H]1C[C@H](N)[C@H](O)[C@H](C)O1 [DOXORUBICIN] here.
181 nM

Read the entry `Cc1cnc2nc3c(n2c1)C(=O)C(=O)c1cccnc1-3` and write its reported IC50.
183 nM

Please report the measured IC50 for `Cc1ccc2nc3c(nc2c1C)C(=O)c1cnncc1C3=O`
19 nM

Please give measured IC50 of the following entry: `O=C1C(=O)c2c(nc3c(C(=O)O)cccn23)-c2ncccc21`
56 nM

For `O=C1C(=O)c2c(nc3ccc(Cl)cn23)-c2ncccc21` , write its IC50.
46 nM

Item `Cc1cccc2nc3c(nc12)C(=O)c1cnncc1C3=O` : provide IC50
70 nM

Look up IC50 of `CN(C)c1ccc2nc3c(nc2c1)C(=O)c1cnncc1C3=O` and report it.
31 nM

Provide one value: measured IC50 of `Cc1cccn2c3c(nc12)-c1ncccc1C(=O)C3=O`
51 nM

Dear colleague, please send me the reported IC50 for `CCc1cccc2nc3c(nc12)C(=O)c1cnncc1C3=O` when you can.
34 nM

Please list IC50 recorded for the compound `O=C1c2cnncc2C(=O)c2nc3cc4c(cc3nc21)OCO4`
41 nM

Read the entry `COc1cc(OC)c2nc3c(nc2c1)C(=O)c1cnncc1C3=O` and write its reported IC50.
70 nM

Fill in reported IC50 for this entry: `O=C1c2cnncc2C(=O)c2nc3cc(C(F)(F)F)ccc3nc21`
79 nM

Item `O=C1c2cnncc2C(=O)c2nc3cc(OC(F)(F)F)ccc3nc21` : provide IC50
63 nM

###

The entries below are paired with their reported IC50.
# System: SK-OV-3
# ASSAY_NOTES: Anticancer activity against human SKOV3 cells after 48 hrs by SRB assay
# Type: functional, cell-based
# CONDITION_CONTEXT: SK-OV-3, 48 h
The response must be a number in nM with no trailing unit.

Known IC50 results, listed for orientation:
{"COMPOUND_SMILES": "Cc1cccc2nc3c(n12)C(=O)C(=O)c1cccnc1-3", "UNIT_TAG": "nM", "IC50": 1650}
{"COMPOUND_SMILES": "CCOc1cccc2nc3c(nc12)C(=O)c1cnncc1C3=O", "UNIT_TAG": "nM", "IC50": 32}

Hello, please tell me recorded IC50 for this one: `O=C1C(=O)c2c(nc3ncccn23)-c2ncccc21`
27
